Source listed as ChEMBL document CHEMBL4483862.

# System: Plasmodium berghei
# Procedure Details: Luciferase/luciferin-expressing antifolate-resistant parasites were used to infect a culture of HepG2 cells that were pre-incubated with compounds. Infected hepatocytes emit light due to the luciferase reaction. Assay results are presented as the percent inhibition of light emission compared to control. […]
# Assay type: functional
# Measurement Parameters: sporozoite, HEPG2TOX_HILL_SLOPE 17.9, HEPG2TOX_R_SQUARED 0.773, PBLUC_HILL_SLOPE 3.73, PBLUC_R_SQUARED 0.671, read-out: LUCIFERASE INFECTION ASSAY - IC50
Quantity: IC50
Form entry: enter the amount, then its unit.

Q: Identify the measured IC50 of Cc1cc(C)nc(N/N=C/c2cn(-c3ccccc3)nc2-c2ccc3c(c2)OCCO3)n1 for Plasmodium berghei.
Result: 5.18 µM

* * *

# System: Plasmodium berghei
# Procedure Details: Luciferase/luciferin-expressing antifolate-resistant parasites were used to infect a culture of HepG2 cells that were pre-incubated with compounds. Infected hepatocytes emit light due to the luciferase reaction. Assay results are presented as the percent inhibition of light emission compared to control. […]
# Type: functional
# Measurement Parameters: sporozoite, PBLUC_HILL_SLOPE 3.2, PBLUC_R_SQUARED 0.36, read-out: LUCIFERASE INFECTION ASSAY - IC50
Quantity: pIC50
Please note pIC50 is a logarithmic value: minus log10 of concentration in mol/L. Answer with that number alone.

Q: Using the record for C=c1onc(-c2c(F)cccc2Cl)c1=C1NC(c2ccccn2)=NO1 , report its pIC50.
Result: 5.22

* * *

# Test system: Plasmodium berghei
# Procedure Details: Luciferase/luciferin-expressing antifolate-resistant parasites were used to infect a culture of HepG2 cells that were pre-incubated with compounds. Infected hepatocytes emit light due to the luciferase reaction. Assay results are presented as the percent inhibition of light emission compared to control. […]
# Type: functional
# Measurement Parameters: sporozoite, PBLUC_HILL_SLOPE 2.67, PBLUC_R_SQUARED 0.243, read-out: LUCIFERASE INFECTION ASSAY - IC50
Quantity: IC50 (µM)
Report as a plain number; the unit µM is understood.

Q: Using the record for Cc1cc(/C=C(\C#N)C(=O)OCC(=O)c2c(N)n(CC(C)C)c(=O)n(C)c2=O)c(C)n1CC(C)C , report its IC50.
Result: 7.76

* * *

# Tested on: Plasmodium berghei
# Procedure Details: Luciferase/luciferin-expressing antifolate-resistant parasites were used to infect a culture of HepG2 cells that were pre-incubated with compounds. Infected hepatocytes emit light due to the luciferase reaction. Assay results are presented as the percent inhibition of light emission compared to control. […]
# Format: functional
# Measurement Parameters: sporozoite, HEPG2TOX_HILL_SLOPE 2.02, HEPG2TOX_R_SQUARED 0.972, PBLUC_HILL_SLOPE 3.75, PBLUC_R_SQUARED 0.69, read-out: LUCIFERASE INFECTION ASSAY - IC50
Quantity: IC50 (µM)
Report as a plain number; the unit µM is understood.

Q: Using the record for COc1cc(/C=C/C(=O)c2ccc(C3CCCCC3)cc2)cc(Br)c1OCC(=O)N(C)C , report its IC50.
Result: 2

* * *

# Test system: Plasmodium berghei
# Procedure Details: Luciferase/luciferin-expressing antifolate-resistant parasites were used to infect a culture of HepG2 cells that were pre-incubated with compounds. Infected hepatocytes emit light due to the luciferase reaction. Assay results are presented as the percent inhibition of light emission compared to control. […]
# Assay type: functional
# Measurement Parameters: sporozoite, HEPG2TOX_HILL_SLOPE 8.55, HEPG2TOX_R_SQUARED 0.942, PBLUC_HILL_SLOPE 15.5, PBLUC_R_SQUARED 0.628, read-out: LUCIFERASE INFECTION ASSAY - IC50
Quantity: pIC50
Please note pIC50 is a logarithmic value: minus log10 of concentration in mol/L. Answer with that number alone.

Q: Using the record for COc1ccc(CCN2C(=O)N(C(C)C)C(=O)C23CCN(Cc2cc4ccccc4[nH]2)CC3)cc1 , report its pIC50.
Result: 5.24

* * *

# Tested on: Plasmodium berghei
# Procedure Details: Luciferase/luciferin-expressing antifolate-resistant parasites were used to infect a culture of HepG2 cells that were pre-incubated with compounds. Infected hepatocytes emit light due to the luciferase reaction. Assay results are presented as the percent inhibition of light emission compared to control. […]
# Format: functional
# Measurement Parameters: sporozoite, PBLUC_HILL_SLOPE 1.57, PBLUC_R_SQUARED 0.611, read-out: LUCIFERASE INFECTION ASSAY - IC50
Quantity: IC50 (nM)
Report as a plain number; the unit nM is understood.

Q: Using the record for C#CCNS(=O)(=O)c1ccc(C(=O)Nc2ccccc2O)cc1 , report its IC50.
Result: 1930

* * *

# System: Plasmodium berghei
# Procedure Details: Luciferase/luciferin-expressing antifolate-resistant parasites were used to infect a culture of HepG2 cells that were pre-incubated with compounds. Infected hepatocytes emit light due to the luciferase reaction. Assay results are presented as the percent inhibition of light emission compared to control. […]
# Format: functional
# Measurement Parameters: sporozoite, PBLUC_HILL_SLOPE 0.408, PBLUC_R_SQUARED 0.392, read-out: LUCIFERASE INFECTION ASSAY - IC50
Quantity: IC50

Q: Using the record for O=C(Nc1ccc(Cl)cc1)O/N=C(\Nc1ccc(OC(F)(F)F)cc1)c1c(Cl)cccc1Cl , report its IC50.
Result: > 6.36 µM

* * *

# Test system: Plasmodium berghei
# Procedure Details: Luciferase/luciferin-expressing antifolate-resistant parasites were used to infect a culture of HepG2 cells that were pre-incubated with compounds. Infected hepatocytes emit light due to the luciferase reaction. Assay results are presented as the percent inhibition of light emission compared to control. […]
# Type: functional
# Measurement Parameters: sporozoite, FFLUC_HILL_SLOPE 1.45, FFLUC_R_SQUARED 0.572, HEPG2TOX_HILL_SLOPE 2.21, HEPG2TOX_R_SQUARED 0.976, PBLUC_HILL_SLOPE 3.43, PBLUC_R_SQUARED 0.708, read-out: LUCIFERASE INFECTION ASSAY - IC50
Quantity: pIC50
Please note pIC50 is a logarithmic value: minus log10 of concentration in mol/L. Answer with that number alone.

Q: Using the record for CCOc1ccc(C2=NNC(=Nc3cccc(S(=O)(=O)N(C)C)c3)SC2)cc1 , report its pIC50.
Result: 5.58

* * *

# Tested on: Plasmodium berghei
# Procedure Details: Luciferase/luciferin-expressing antifolate-resistant parasites were used to infect a culture of HepG2 cells that were pre-incubated with compounds. Infected hepatocytes emit light due to the luciferase reaction. Assay results are presented as the percent inhibition of light emission compared to control. […]
# Type: functional
# Measurement Parameters: sporozoite, FFLUC_HILL_SLOPE 5.28, FFLUC_R_SQUARED 0.776, PBLUC_HILL_SLOPE 4.98, PBLUC_R_SQUARED 0.188, read-out: LUCIFERASE INFECTION ASSAY - IC50
Quantity: pIC50
Please note pIC50 is a logarithmic value: minus log10 of concentration in mol/L. Answer with that number alone.

Q: Using the record for CNc1nc2cnc(-c3cccc(Oc4ccccc4)c3)cc2n1-c1cccc(F)c1 , report its pIC50.
Result: 5.10

* * *

# System: Plasmodium berghei
# Procedure Details: Luciferase/luciferin-expressing antifolate-resistant parasites were used to infect a culture of HepG2 cells that were pre-incubated with compounds. Infected hepatocytes emit light due to the luciferase reaction. Assay results are presented as the percent inhibition of light emission compared to control. […]
# Format: functional
# Measurement Parameters: sporozoite, HEPG2TOX_HILL_SLOPE 0.976, HEPG2TOX_R_SQUARED 0.779, read-out: LUCIFERASE INFECTION ASSAY - IC50
Quantity: IC50

Q: Using the record for CCOc1cc(/C=C/C(=O)c2ccc(-c3ccccc3)cc2)ccc1OCC(=O)N(C)C , report its IC50.
Result: > 10 µM

* * *

# System: Plasmodium berghei
# Procedure Details: Luciferase/luciferin-expressing antifolate-resistant parasites were used to infect a culture of HepG2 cells that were pre-incubated with compounds. Infected hepatocytes emit light due to the luciferase reaction. Assay results are presented as the percent inhibition of light emission compared to control. […]
# Format: functional
# Measurement Parameters: sporozoite, FFLUC_HILL_SLOPE 1.53, FFLUC_R_SQUARED 0.767, PBLUC_HILL_SLOPE 0.914, PBLUC_R_SQUARED 0.801, read-out: LUCIFERASE INFECTION ASSAY - IC50
Quantity: pIC50
Please note pIC50 is a logarithmic value: minus log10 of concentration in mol/L. Answer with that number alone.

Q: Using the record for Nc1nc2c(C(=O)c3cccs3)nnn2c2ccc(Cl)cc12 , report its pIC50.
Result: 7.35

* * *

# Test system: Plasmodium berghei
# Procedure Details: Luciferase/luciferin-expressing antifolate-resistant parasites were used to infect a culture of HepG2 cells that were pre-incubated with compounds. Infected hepatocytes emit light due to the luciferase reaction. Assay results are presented as the percent inhibition of light emission compared to control. […]
# Format: functional
# Measurement Parameters: sporozoite, FFLUC_HILL_SLOPE 16.1, FFLUC_R_SQUARED 0.465, PBLUC_HILL_SLOPE 2.76, PBLUC_R_SQUARED 0.814, read-out: LUCIFERASE INFECTION ASSAY - IC50
Quantity: IC50 (µM)
Report as a plain number; the unit µM is understood.

Q: Using the record for CCOc1ccc(NC(=S)N/N=C2/C(=O)c3cccc4cccc2c34)cc1 , report its IC50.
Result: 4.61
